# Tested on: MALME-3M melanoma
# assay.remarks: NCI tumour cell line growth inhibition, 48 h
test.readout: TGI

Please state, for each entry, its recorded TGI.
1. CC(C)(C)C1=Cc2cc3cc(C(C)(C)C)[nH]c(=O)c3cc2S(=O)(=O)N1
2. CC(=O)N/N=C1/NN(C(C)=O)C2(S1)C(=O)Nc1ccc(Br)cc12 (stereo not given)
3. COc1cc(Cl)cc(-c2nn(C(=O)NCCN3CCOCC3)cc2-c2ccncc2)c1

Marked response:
1. 57.7 µM
2. > 100 µM
3. > 100 µM

Please state, for each entry, its recorded TGI.
1. Cc1cn2c(/C=C3/C(=O)Nc4cccc(Cl)c43)c(Cl)nc2s1
2. COc1cccc(-c2cc(=O)c3c(C)cc(C)nc3[nH]2)c1
3. COc1ccc(N2C(C)=C(C#N)C34C(=O)N(c5ccccc5)C(=O)C3=C(O)C=CC24O)cc1 (stereo not given)
4. CSCCC(NCc1c(O)ccc2c(-c3ccccc3)cc(=O)oc12)C(=O)O (stereo not given)
5. CCN(CC)CCOC(NC(C)=O)(c1ccccc1)c1ccccc1
6. O=C(Cn1ccc(=O)[nH]c1=O)Nc1ccc(C(=O)O)c(O)c1

Marked response:
["> 100 µM", "> 100 µM", "53.4 µM", "> 100 µM", "> 100 µM", "> 100 µM"]

Exam item: Entry "O=C1c2ccccc2CN1c1ccc(O)cc1" has what TGI?
Marked response: > 100 µM

###

# System: IGROV1 ovarian
# assay.remarks: NCI tumour cell line growth inhibition, 48 h
test.readout: TGI

# example entries with known answers
>  <compound>
Cc1ccc(C(=O)O/N=C2/CCC/C2=C\c2ccccc2)cc1

>  <TGI>
> 100 µM

$$$$
>  <compound>
O=CNc1c(Cl)cc2c(c1Cl)Cc1cc([N+](=O)[O-])ccc1-2

>  <TGI>
38.7 µM

$$$$
>  <compound>
Cc1ccc(S(=O)(=O)N2CCSCCSCCSCCSCC2)cc1

>  <TGI>
> 100 µM

$$$$
>  <compound>
Cc1ccc2c(ccc3c[n+]4c5ccccc5ccc4n32)c1

>  <TGI>
18.6 µM

$$$$
>  <compound>
CC(C)C(=O)Nc1nc2nc[nH]c2c(=O)[nH]1

>  <TGI>
> 100 µM

$$$$
>  <compound>
CN(C)c1nc(=NCc2ccncc2)ss1

>  <TGI>
> 100 µM

$$$$
>  <compound>
CN(C)c1ccc(-c2c(C#N)c(S)n(NS(=O)(=O)c3ccccc3)c(=O)c2C#N)cc1

>  <TGI>
73.5 µM

$$$$
>  <compound>
Nc1c2ccccc2nc2c1ccc1ncccc12

>  <TGI>
> 100 µM

$$$$

Please state, for each entry, its recorded TGI.
1. COc1cccc(NC(=O)CC(=O)N2N=C(N(CCC#N)c3ccc(Cl)cc3)CC2c2ccccc2)c1 (stereo not given)
2. O=C1C(c2c(O)[nH]c3ccc(S(=O)(=O)O)cc23)=Nc2ccccc21
3. Cc1cc(N(CCC#N)S(=O)(=O)c2ccccc2)ccc1/C=C1N=C(/C=C/c2ccccc2)OC\1=O
4. O=C(CP(=O)(O)O)c1cccs1
5. C=C(C)CCC(=O)[C@](C)(O)[C@H]1[C@H](O)C[C@@]2(C)[C@@H]3CCc4c(cc(OC5OC(CO)C(O)C(O)C5O)c(O)c4C)C3(C)C(=O)C[C@]12C (stereo not given in full)
6. CCOC1CC(=O)c2c(Br)sc(Br)c21 (stereo not given)
7. C=CCC1([C@H](C)[C@@H](OC(C)=O)c2cc(OC)c(OC)c(OC)c2)C[C@@H](OC)CCC1=O (stereo not given in full)
8. CNS(=O)(=O)NN(C)S(=O)(=O)c1ccc(F)cc1

Marked response:
1. > 100 µM
2. > 100 µM
3. > 100 µM
4. > 100 µM
5. > 100 µM
6. 31 µM
7. 33.5 µM
8. > 100 µM

Please state, for each entry, its recorded TGI.
1. O=Cc1cn(C(=O)c2ccccc2)c2ccccc12
2. CCN(CC)CCOC(NC(C)=O)(c1ccccc1)c1ccccc1

Marked response:
> 100 µM
> 100 µM

Please state, for each entry, its recorded TGI.
1. Cc1ccc(S(=O)(=O)Oc2cc(N)c3c(n2)CCC3)cc1
2. COC(=O)c1ccccc1/C=C1/Cc2ccccc2C1=O
3. COc1ccccc1NC(=O)CC(=O)N1N=C(C)C(N=Nc2ccc(S(N)(=O)=O)cc2)C1=O (stereo not given)
4. CC(C)(C)N=c1n(C(C)(C)C)oc(=O)n1C(C)(C)C

Marked response:
1: > 100 µM; 2: 88.7 µM; 3: > 100 µM; 4: > 100 µM

Please state, for each entry, its recorded TGI.
1. CC(C)=C[C@@H]1C[C@H](n2cc(C)c(=O)[nH]c2=O)ON1CCO
2. CN(C(=O)C12C3C4C5C3C1(C(=O)O)C5C42)C(C)(C)C (stereo not given)
3. CCCCOc1ccc(NC(N)=Nc2ccc(Cl)cc2)cc1

Marked response:
["> 100 µM", "> 100 µM", "21.3 µM"]
